Test system: LOX IMVI melanoma
Protocol: NCI tumour cell line growth inhibition, 48 h
Task for the reader: assign each of the following compounds its reported log10 of TGI.
# log10 transformed; quantity=TGI; unit=µM

Please review the following examples before continuing.
{"Compound": "CSC(SC)=C(C#N)C(=O)Nc1ccc(Cl)cc1", "log10 of TGI": 1.79}
{"Compound": "CNC(=O)OC1/C(C)=C\\C(C)C(O)C(OC)CC(C)CC2=C(OC)C(=O)C=C(C2=O)N(C)C(=O)/C(C)=C/C=C\\C1OC (stereo unspecified)", "log10 of TGI": 1.22}
{"Compound": "COc1cc2c3c(c4ccc(O)cc4c2cc1OC)[C@@H](O)[C@@H]1CCCN1C3", "log10 of TGI": -2.47}
{"Compound": "NP1(Oc2ccc(F)cc2)=NP(N)(Oc2ccc(F)cc2)=NP(Oc2ccc(F)cc2)(Oc2ccc(F)cc2)=N1 (stereo unspecified)", "log10 of TGI": 1.29}
{"Compound": "Clc1ccc(Cc2nc3cc4ccccc4cc3[nH]2)cc1Cl", "log10 of TGI": 1.78}

// each compound listed below needs its log10 of TGI
1. CC1=C(C(=S)Nc2ccc(Cl)c(C(=O)OC(C)C)c2)SCCO1
2. COc1ccc([C@@H]2[C@@H](Cl)C(=O)N2c2cc(OC)c(OC)c(OC)c2)cc1C
3. CC(=O)OC1CCC2(C)C(CCC3C2CCC2(C)C(c4ccc(=O)oc4)C(OC(C)=O)CC32O)C1 (stereo unspecified)
4. O=C1c2ccccc2C(=O)c2c1ccc1c3ccccc3n(-c3ccccc3)c21

# output
[1.46, 1.23, -0.42, 1.48]

----------
System: RXF 393 renal
Protocol: NCI tumour cell line growth inhibition, 48 h
Quantity Kind: TGI

Please review the following examples before continuing.
{"Compound": "N#Cc1c(N)oc2cc3c(C#N)c(N)oc3cc12", "TGI": "> 100 µM"}
{"Compound": "C1CCC(CC2CCC(NC3=NCCO3)CC2)CC1 (stereo not drawn)", "TGI": "36.6 µM"}
{"Compound": "CN(N=O)c1ccc(/C=C/c2ccnc3ccccc23)cc1", "TGI": "> 100 µM"}
{"Compound": "COc1ccc2c(Cl)cc(NC(=S)Nc3ccccc3)nc2c1", "TGI": "55.6 µM"}
{"Compound": "COc1ccc(/C=C(\\C#N)c2ccccn2)cc1OC", "TGI": "> 100 µM"}

// each compound listed below needs its TGI
1. CCOc1c2c(cc3c1C(=O)c1c(OC)cccc1C3=O)C=C(OC)CC2
2. CCCCCCCCCC(=O)Oc1ccc(/C(=C(/C)c2ccccc2)c2ccc(OCCN3CCCC3)cc2)cc1
3. O=C1N(c2ccc(Cl)cc2)C(=O)C2(SC=NN2Cc2ccccc2)N1c1ccc(Cl)cc1 (stereo not drawn)
4. COC(OC)c1cccc2c1C(=O)CCC1(CC2)OCCCCO1

# output
> 25 µM
14.1 µM
> 100 µM
> 100 µM

// each compound listed below needs its TGI
1. O=C1c2ccccc2CC12Cc1ccc3c(c1C2=O)CCCC3 (stereo not drawn)
2. C[N+]1(CC[N+]2(C)CCCC2c2cccnc2)CCCC1c1cccnc1 (stereo not drawn)
3. CCOC(=O)CN(CC)C(=O)NC12CC3CC(CC(C3)C1)C2
4. CC(=O)OC1COC(N2C(=O)C(=O)c3ccccc32)C(OC(C)=O)C1OC(C)=O (stereo not drawn)
5. CSCSCC(CO)NC(=O)/C=C/c1c(C)[nH]c(=O)[nH]c1=O (stereo not drawn)
6. O=C(Nc1c[nH]c(=O)[nH]c1=O)Oc1ccccc1
7. Nc1nc(N)c(CCCCc2ccc([N+](=O)[O-])cc2)c(N)n1
8. CCN(CC)C(=O)N[C@@H](CC(C)C)C(=O)NC

# output
23.9 µM
> 100 µM
509 µM
> 100 µM
> 100 µM
> 100 µM
> 100 µM
> 100 µM

// each compound listed below needs its TGI
1. O=C1c2ccccc2-c2cn(Cc3ccccc3)c3cccc(c23)C1c1cccnc1 (stereo not drawn)
2. COc1cccc(C2c3cc4c(cc3OC(NNS(=O)(=O)c3ccc(C)cc3)C2C)OCO4)c1O (stereo not drawn)
3. Cc1nc2nnc(CCCCCCCCc3nnc4nc(C)[nH]n34)n2[nH]1
4. COC(=O)[C@@H]1CN(C(=O)Cc2ccccc2)C(=O)N1
5. C=CCN(C(C)=O)c1cc(OCc2ccccc2)c2c(c1)c(C)cn2S(=O)(=O)c1ccccc1
6. CCCNC(=O)c1cc(OC)c(OC)cc1NC(=O)C12CC3CC(CC(C3)C1)C2

# output
["> 50 µM", "70.9 µM", "> 100 µM", "> 100 µM", "> 100 µM", "19.3 µM"]

----------
Tested on: MCF7 breast
Protocol: NCI tumour cell line growth inhibition, 48 h
Quantity Kind: TGI

Please review the following examples before continuing.
{"Compound": "O=C(OC[C@H]1C[C@H]2C(=O)OCCC[C@H]2O1)c1ccccc1", "TGI": "> 100 µM"}
{"Compound": "N#Cc1ccc2c(-c3ccnc(NC4CC4)n3)c(-c3ccc(F)cc3)nn2c1", "TGI": "> 25 µM"}
{"Compound": "CCOC(=O)c1c(N2CCN(C)CC2)[nH]c(=O)c(C(c2c(Cl)cccc2Cl)c2c(O)c(C(=O)OCC)c(N3CCN(C)CC3)[nH]c2=O)c1O", "TGI": "> 100 µM"}
{"Compound": "Cc1ccc2c(c1)CC1(Cc3cc(C)ccc3C1=O)C2=O", "TGI": "> 100 µM"}
{"Compound": "CC(=O)CC(O)(C(F)(F)Cl)C(F)(Cl)Cl (stereo not given)", "TGI": "> 10 µM"}
{"Compound": "Cc1csc(NCc2ccc(Cl)cc2)n1", "TGI": "> 100 µM"}
{"Compound": "c1cc(CSP234N5CCN2CCN3CCN4CC5)cc(CSP234N5CCN2CCN3CCN4CC5)c1", "TGI": "68.6 µM"}
{"Compound": "Cc1ccc([N+](=O)[O-])cc1S(=O)(=O)Nc1ccc(C2=NN(S(=O)(=O)c3cc([N+](=O)[O-])ccc3C)C(c3ccccc3O)C2)cc1 (stereo not given)", "TGI": "> 100 µM"}
{"Compound": "CCOC(=O)/C(C(=O)c1ccc[nH]1)=C1/CCCN1C", "TGI": "> 100 µM"}
{"Compound": "COc1ccc(C(CC(=O)c2cccs2)C(=O)c2ccc3c(c2)OCO3)cc1 (stereo not given)", "TGI": "> 100 µM"}

// each compound listed below needs its TGI
1. CCOC(=O)c1c(CN2CCCCC2)nc2ccc(Cl)cc2c1-c1ccccc1
2. Cc1n[nH]c(=O)c2c3c([nH]c12)-c1ccccc1C3

# output
41.2 µM
> 100 µM

// each compound listed below needs its TGI
1. NS(=O)(=O)c1cccc(Nc2cc(-c3ccc(F)cc3)[nH]n2)c1
2. O=[N+]([O-])c1ccc(CSC2=C(c3ccc(Cl)cc3)S/C(=C3\SC(SCc4ccc([N+](=O)[O-])cc4)=C(c4ccc(Cl)cc4)S3)S2)cc1
3. C[N+]1(CC[N+]2(C)CCCC2c2cccnc2)CCCC1c1cccnc1 (stereo not given)
4. NS(=O)(=O)c1ccc(Nc2c3ccccc3nc3c(C(=O)NC(CO)(CO)CO)cccc23)cc1
5. O=[N+]([O-])C(/C=C(\Cl)[N+](=O)[O-])=C(N1CCOCC1)N1CCOCC1
6. Nc1nc(SCC#CCCl)c2[nH]cnc2n1

# output
1. > 25 µM
2. > 100 µM
3. > 100 µM
4. 0.106 µM
5. 35.3 µM
6. 16.3 µM

// each compound listed below needs its TGI
1. CC(C)C1OC(=O)C(Cc2ccccc2)N(C)C(=O)C(C(C)C)OC(=O)C(Cc2ccccc2)N(C)C(=O)C(C(C)C)OC(=O)C(Cc2ccccc2)N(C)C1=O (stereo not given)
2. COc1cc2c(cc1C)NC(=O)/C2=C/c1c(Cl)[nH]c2ccccc12
3. O=C(NOCCO)c1ccc2cncn2c1Nc1ccc(I)cc1F
4. CCCNC(=O)c1cc(OC)c(OC)cc1NC(=O)C12CC3CC(CC(C3)C1)C2
5. O=C1OC(c2ccccc2)=N/C1=C\c1ccccc1
6. COc1ccc([C@@H]2[C@@H](Cl)C(=O)N2c2cc(OC)c(OC)c(OC)c2)cc1C

# output
1.79 µM
16.1 µM
> 100 µM
64.2 µM
> 100 µM
> 100 µM

// each compound listed below needs its TGI
1. CCCCCn1sc(=O)n(Cc2ccc(CNC(=O)C(C)c3ccc(CC(C)C)cc3)cc2)c1=O (stereo not given)
2. Cc1cc2nc3c(N)nn(CCCN(C)C)c3nc2cc1C

# output
1. 2.26 µM
2. > 100 µM

// each compound listed below needs its TGI
1. O=C(c1ccccc1)c1nn(-c2cccc(Cl)c2)c2nc3nc(-c4ccccc4)cc(=O)n3nc12
2. O=C1N[C@@H]([C@H]2CC[C@H](Cl)CN2)C(=O)N[C@H]1[C@H]1CC[C@H](Cl)CN1
3. Cc1ccc(C)c(N2CCN(c3ccncc3N)CC2)c1
4. CC1=C(\C=C/C(C)=C/C=C/C(C)=C/C=C/C=C(C)\C=C\C=C(C)/C=C/C2=C(C)CCCC2(C)C)C(C)(C)CCC1
5. Cc1nc2nnc(CCCCCCCCc3nnc4nc(C)[nH]n34)n2[nH]1
6. COc1cccc2c1C(=O)c1c(O)c3c(c(O)c1C2=O)C[C@@](O)(C(C)=O)C[C@@H]3OC1CC(N(Cc2ccccc2)Cc2ccccc2)C(O)C(C)O1 (stereo not given in full)

# output
1. > 25 µM
2. 7.25 µM
3. 29.6 µM
4. > 100 µM
5. > 100 µM
6. > 36 µM

// each compound listed below needs its TGI
1. N#Cc1cnn(C(=O)c2nn(-c3ccc(Cl)cc3)cc2O)c1N
2. CC1=C(C(=S)Nc2ccc(Cl)c(C(=O)OC(C)C)c2)SCCO1
3. CCOC(=O)CN(CC)C(=O)NC12CC3CC(CC(C3)C1)C2
4. COC(=O)c1sc2c(c1C(=O)OC)C(=Nc1ccc(OC)cc1)SC2=Nc1ccc(OC)cc1
5. CSc1ccc(-c2cn3ccsc3n2)cc1
6. CC1CCc2c(C(=O)Nc3ncc(Cc4cccc([N+](=O)[O-])c4)s3)csc2C1 (stereo not given)
7. CC(NC(CC12CC3CC(CC(C3)C1)C2)C(N)=O)c1ccccc1 (stereo not given)

# output
["10.5 µM", "> 100 µM", "461 µM", "2.47 µM", "> 100 µM", "> 100 µM", "> 100 µM"]

# input Provide only the value of recorded TGI for CC1(C)OCC(/C=C\C(O)CC2(C)OCCO2)CO1 (stereo not given)
# output > 100 µM

Cited source for all entries: PubChem BioAssay (NCI)
